Target: AlucOR46/Orco (Apolygus lucorum, UniProt A0A1Q1NIJ3)
Construct: full-length ORF of AlucOR46 (1185 bp, 394 residues) in pT7Ts, cRNA co-injected with AlucOrco cRNA into Xenopus oocytes; OR/Orco heteromeric channel; with Odorant receptor coreceptor
Sequence (A0A1Q1NIJ3 1-394): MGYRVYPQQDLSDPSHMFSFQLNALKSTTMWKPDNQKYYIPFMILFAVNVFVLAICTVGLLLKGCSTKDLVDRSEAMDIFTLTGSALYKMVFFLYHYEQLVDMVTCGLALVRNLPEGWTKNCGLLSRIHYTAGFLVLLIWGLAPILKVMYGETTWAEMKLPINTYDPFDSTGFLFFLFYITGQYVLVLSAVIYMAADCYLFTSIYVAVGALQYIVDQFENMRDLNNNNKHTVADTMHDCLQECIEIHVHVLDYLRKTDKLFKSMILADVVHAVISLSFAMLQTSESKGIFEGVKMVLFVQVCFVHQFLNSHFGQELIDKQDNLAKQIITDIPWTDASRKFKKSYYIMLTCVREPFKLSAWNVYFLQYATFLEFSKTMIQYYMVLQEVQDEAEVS
Sequence (V9TQK7 1-471 partner): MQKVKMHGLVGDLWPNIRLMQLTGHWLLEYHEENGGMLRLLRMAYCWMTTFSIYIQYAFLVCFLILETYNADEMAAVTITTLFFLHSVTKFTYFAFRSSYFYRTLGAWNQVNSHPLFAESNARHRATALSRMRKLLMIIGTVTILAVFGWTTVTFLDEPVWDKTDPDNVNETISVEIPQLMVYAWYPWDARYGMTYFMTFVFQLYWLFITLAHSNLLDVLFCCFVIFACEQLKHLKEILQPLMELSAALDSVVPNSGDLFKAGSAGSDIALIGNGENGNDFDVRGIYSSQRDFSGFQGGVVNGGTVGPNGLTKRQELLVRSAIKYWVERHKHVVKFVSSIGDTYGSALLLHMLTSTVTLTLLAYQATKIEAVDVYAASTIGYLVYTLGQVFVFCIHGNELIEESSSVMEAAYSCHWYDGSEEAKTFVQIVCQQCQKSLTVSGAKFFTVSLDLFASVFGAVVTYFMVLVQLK
Test: two-electrode voltage clamp, Xenopus oocytes, inward current dose-response
Description: two-electrode voltage clamp, Xenopus oocytes, inward current dose-response on AlucOR46/Orco
Property label: EC50 (µM)

Observe how each entry below is paired with its result.
{"Molecule": "CC1(C)[C@H]2CC=C(CO)[C@@H]1C2 [(1R)-(−)-Myrtenol]", "Result units": "µM", "EC50": 74.4}
{"Molecule": "CCC/C=C/C=O [(E)-2-Hexenal]", "Result units": "µM", "EC50": 37.1}

a: CCCCCCCO [1-Heptanol]
b: CC/C=C/CCO [(E)-3-Hexenol]
Prompt line: Of the two listed items, a and b , which carries the larger EC50 figure? Your answer should be the label attached to the chosen record.
Response line: b
